target: Human Her2 protein (human, UniProt P04626 23-652)

Binder	Measurement Units	Kd
1162 Pro1047 (antibody, V domains shown) VH: QVQLQESGGGLVQAGGSLRLSCAASGRPFSGNAMGWFRQAPGKEREFVAAISWSGDSTYYADSVKGRFTISRDNDENTAYLQMNSLKPEDTAVYYCAATRSFYSRTYYTRPSDYNYWGPGTQVTVSS	nM	21.4
h1162 Pro1064 (antibody, V domains shown) VH: QVQLLESGGGLVQPGGSLRLSCAASGRPFSGNAMGWFRQAPGKEREFVAAISWSGDSTYYADSVKGRFTISRDNSKNTLYLQMNSLRAEDTAVYYCAATRSFYSRTYYTRPSDYNYWGPGTLVTVSS	nM	22.9
1156 Pro1044 (antibody, V domains shown) VH: QVQLQESGGGLVQAGGSLKVSCAASRNIGSNYAVGWFRQAPGKEREPVAALRWTGSIIGYDDSLRGRFTISKDDAKNTVYLQMNSLKPEDTGVYYCAARILDRSSYDYWGQGTQVTVSS	nM	6.6
h1159 Pro1062 (antibody, V domains shown) VH: QVQLLESGGGLVQPGGSLRLSCATSGRTFSSLAMGWFRQAPGKERELVAGISWSGSTTYYADSVKGRFAISRDNSKNTLYLQMNSLRAEDTAVYYCAARTSSIATIGREYDYWGQGTLVTVSS	nM	106
1092 Pro1040 (protein) QVQLQESGGGLVQAGASLRLSCAASGFTFDDYALSWVRQAPGKGLEWVSSINWSGTHTDYADSVKGRFTISRDNAKNTLYLQMNSLKSEDSAVYYCVKGWRLTGGYYDSVQGQGTQVTVSS	nM	3.1
1059 Pro1038 (protein) QVQLQESGGGLVQPGGSLRLTCAASGRAISSYAISWFRQAPGEEREFVAAINWSGTHTDYADSVKGRFTISRDNAKNTVYLQMNSLKPEDTAVYFCSRGWSVFDPDYRGQGTQVTVSS	nM	23
